- tested target: T1, ICAM1-Fc (R&D Systems) (human, UniProt P05362 28-480)
- T1 construct: Bought; also called ICAM-1/CD54; not shown: Fc of the bought fusion protein
- T1 sequence (P05362 28-480): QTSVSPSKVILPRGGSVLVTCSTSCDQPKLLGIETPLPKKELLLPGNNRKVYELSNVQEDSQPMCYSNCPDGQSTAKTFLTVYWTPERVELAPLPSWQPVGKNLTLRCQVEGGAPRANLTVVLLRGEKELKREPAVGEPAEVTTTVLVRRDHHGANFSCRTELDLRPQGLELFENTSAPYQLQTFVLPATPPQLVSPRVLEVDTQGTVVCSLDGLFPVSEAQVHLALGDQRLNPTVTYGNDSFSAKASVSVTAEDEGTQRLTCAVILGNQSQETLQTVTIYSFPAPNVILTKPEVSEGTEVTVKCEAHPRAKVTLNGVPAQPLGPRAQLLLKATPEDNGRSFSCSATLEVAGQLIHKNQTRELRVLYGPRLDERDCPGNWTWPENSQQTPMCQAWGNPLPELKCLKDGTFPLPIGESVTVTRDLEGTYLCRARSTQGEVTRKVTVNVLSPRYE
- run description: ELISA on coated ICAM1-Fc, 150 ng IgG1; None 0.060
Measured ELISA Absorbance (405 nm-570 nm), listed per entry for reference.
Enter a number only.

// worked examples, ELISA Absorbance (405 nm-570 nm) included
>>> value("HW-8 chimeric rabbit-human IgG1 LA/LA/PG (antibody, V domains shown, Fc-silenced (L234A/L235A/P329G) IgG1, kappa; Alexa Fluor 647-labeled in single-step flow cytometry; Cluster C-45) VH: QSLEESGGRLVTPGTPLTLTCTVSGFSLSSYAMSWVRQAPGKGLEWIGAISTGGSTTYASWAKGRFTISKTSSTTVDLKMTSLTTEDTATYFCVRHFRLWGPGTLVTISS VL: QVLTQTPSSVSAAVGGTVTIKCQASQSIGSALAWFQQKPGQRPKLLIYRASNLASGVPSRFKGSGSGTEFALTISGVQREDAATYYCLGGAAAVWAFGAGTNVEIKR")
0.067
>>> value("HW-28 chimeric rabbit-human IgG1 LA/LA/PG (antibody, V domains shown, Fc-silenced (L234A/L235A/P329G) IgG1, lambda; Alexa Fluor 647-labeled in single-step flow cytometry; Cluster C-45) VH: QKQLVESGGRLVTPGTPLTLTCTASGFSLSSNAMSWVRQAPGEGLQWIGTISSGGSTYYASWAKGRFTISKTSTTVTLKMTSLTTEDTATYFCARGADLHRLWGPGTLVTVSS VL: SFVLTQPASVQVNLGQTVSLTCTGKPLSRSFASWYQQKPGQAPVLVIYRDTSRPSGVPDRFSGSSSGNTATLTISGAQAGDEADYYCATSDGSGSSYQYVFGGGTQLTVTG")
0.085

Now for another entry.
Give the reported ELISA Absorbance (405 nm-570 nm) for this binder. HW-25 chimeric rabbit-human IgG1 LA/LA/PG (antibody, V domains shown, Fc-silenced (L234A/L235A/P329G) IgG1, lambda; Alexa Fluor 647-labeled in single-step flow cytometry; Cluster C-1) VH: QSLEESGGRLVTPGTPLTLTCTVSGFSLSSYAMGWVRQAPGKGLEWIGIIDSRGSTYYATWAKGRFTISKTSTTVDLKITSPTTEDTATYFCAREDSYYYDSFNLWGPGTLVTVSS VL: SFVLTQPASVQVNLGQTVSLTCTADTLSRRYASWYQQKPGQAPVLLIYRDTSRPSGVPDRFSGSSSGNTATLTISGAQAGDEADYYCATSDGSGSSYQCVFGGGTQLTVTG
0.054
